# IC50 listing for each entry below
- TESTED_ON: human calcium-sensing receptor (CaSR) (Homo sapiens, UniProt P41180)
- Sequence (P41180 20-1078): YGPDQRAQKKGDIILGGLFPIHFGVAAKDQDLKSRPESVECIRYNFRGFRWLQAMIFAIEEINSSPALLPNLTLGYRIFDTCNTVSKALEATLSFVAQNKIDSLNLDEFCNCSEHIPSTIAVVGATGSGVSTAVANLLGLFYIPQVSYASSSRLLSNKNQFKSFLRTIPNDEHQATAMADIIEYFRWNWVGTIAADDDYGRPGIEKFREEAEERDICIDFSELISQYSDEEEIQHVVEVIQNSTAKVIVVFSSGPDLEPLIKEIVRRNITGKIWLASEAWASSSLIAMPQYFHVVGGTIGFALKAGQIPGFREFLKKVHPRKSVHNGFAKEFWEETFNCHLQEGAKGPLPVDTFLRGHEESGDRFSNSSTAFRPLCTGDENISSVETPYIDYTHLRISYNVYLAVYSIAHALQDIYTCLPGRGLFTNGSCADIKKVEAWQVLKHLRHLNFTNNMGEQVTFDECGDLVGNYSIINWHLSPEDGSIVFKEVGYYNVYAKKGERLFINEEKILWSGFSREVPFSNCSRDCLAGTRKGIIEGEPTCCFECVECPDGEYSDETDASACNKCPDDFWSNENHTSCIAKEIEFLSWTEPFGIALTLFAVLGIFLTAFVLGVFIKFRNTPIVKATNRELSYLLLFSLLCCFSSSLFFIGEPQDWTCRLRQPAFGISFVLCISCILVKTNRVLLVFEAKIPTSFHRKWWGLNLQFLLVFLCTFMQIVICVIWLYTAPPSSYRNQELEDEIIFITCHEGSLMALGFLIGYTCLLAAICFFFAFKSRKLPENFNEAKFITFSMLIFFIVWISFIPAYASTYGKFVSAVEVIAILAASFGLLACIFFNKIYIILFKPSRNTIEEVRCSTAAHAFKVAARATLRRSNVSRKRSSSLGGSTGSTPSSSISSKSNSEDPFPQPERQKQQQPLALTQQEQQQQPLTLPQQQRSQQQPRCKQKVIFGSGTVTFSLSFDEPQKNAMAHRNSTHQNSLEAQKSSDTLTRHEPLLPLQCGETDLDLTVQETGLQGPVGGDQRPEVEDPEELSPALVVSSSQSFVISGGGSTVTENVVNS
- METHOD_NOTES: Inhibitory activity on calcium-sensing receptor (CaSR) using intracellular calcium increase as an indicator (FLIPR, CHO/hCaSR)
- CONDITION_DESCRIPTION: CHO/hCaSR cells; intracellular Ca increase induced by CaCl2; test compound 1.05 to 10,000 nM

[
  {
    "MOLECULE": "C[C@@H](OC[C@H](O)CNC(C)(C)CC1Cc2ccccc2C1)c1ccc(F)cc1CCC(=O)O",
    "IC50": "≤ 2400 nM"
  },
  {
    "MOLECULE": "Cc1ccc([C@@H](C)OC[C@H](O)CNC(C)(C)CC2Cc3ccccc3C2)c(CCC(=O)O)c1",
    "IC50": "≤ 2420 nM"
  },
  {
    "MOLECULE": "C[C@@H](OC[C@H](O)CNC(C)(C)CC1Cc2ccccc2C1)c1cc(F)ccc1CCCCC(=O)O",
    "IC50": "≤ 2270 nM"
  },
  {
    "MOLECULE": "CC(OC[C@H](O)CNC(C)(C)CC1Cc2ccccc2C1)c1c(Cl)cccc1CCC(=O)O (stereo partly drawn)",
    "IC50": "≤ 2320 nM"
  },
  {
    "MOLECULE": "Cc1ccc(CCC(=O)O)c([C@@H](C)OC[C@H](O)CNC(C)(C)CC2Cc3ccccc3C2)c1",
    "IC50": "≤ 2420 nM"
  },
  {
    "MOLECULE": "CCOc1cccc([C@@H](C)OC[C@H](O)CNC(C)(C)CC2Cc3ccccc3C2)c1CCCCC(=O)O",
    "IC50": "≤ 2150 nM"
  },
  {
    "MOLECULE": "CCC[C@@H](OC[C@H](O)CNC(C)(C)CC1Cc2ccccc2C1)c1cccc(F)c1CCC(=O)O",
    "IC50": "≤ 2270 nM"
  },
  {
    "MOLECULE": "C[C@@H](OC[C@H](O)CNC(C)(C)CC1Cc2ccccc2C1)c1ccccc1CC(C)(C)C(=O)O",
    "IC50": "≤ 2350 nM"
  },
  {
    "MOLECULE": "C[C@@H](OC[C@H](O)CNC(C)(C)CC1Cc2ccccc2C1)c1cccc(Cl)c1CCC(=O)O",
    "IC50": "≤ 2320 nM"
  },
  {
    "MOLECULE": "CCC[C@@H](OC[C@H](O)CNC(C)(C)CC1Cc2ccccc2C1)c1cc(F)ccc1CCC(=O)O",
    "IC50": "≤ 2270 nM"
  },
  {
    "MOLECULE": "Cc1cc(CCC(=O)O)c([C@@H](C)OC[C@H](O)CNC(C)(C)CC2Cc3ccccc3C2)cc1F",
    "IC50": "≤ 2330 nM"
  },
  {
    "MOLECULE": "CCC[C@@H](OC[C@H](O)CNC(C)(C)CC1Cc2ccccc2C1)c1cccc(C)c1CCC(=O)O",
    "IC50": "≤ 2280 nM"
  },
  {
    "MOLECULE": "CCC[C@@H](OC[C@H](O)CNC(C)(C)CC1Cc2ccccc2C1)c1cccc(OC)c1CCC(=O)O",
    "IC50": "≤ 2210 nM"
  },
  {
    "MOLECULE": "C[C@@H](OC[C@H](O)CNC(C)(C)CC1Cc2ccccc2C1)c1cc(Cl)ccc1CCC(=O)O",
    "IC50": "≤ 2320 nM"
  },
  {
    "MOLECULE": "C[C@@H](OC[C@H](O)CNC(C)(C)CC1Cc2ccccc2C1)c1cc(F)c(F)cc1CCCCC(=O)O",
    "IC50": "≤ 2180 nM"
  },
  {
    "MOLECULE": "CCC[C@@H](OC[C@H](O)CNC(C)(C)CC1Cc2ccccc2C1)c1cccc(Cl)c1CCC(=O)O",
    "IC50": "≤ 2190 nM"
  },
  {
    "MOLECULE": "CC[C@@H](OC[C@H](O)CNC(C)(C)CC1Cc2ccccc2C1)c1cc(Cl)ccc1CCC(=O)O",
    "IC50": "≤ 2250 nM"
  },
  {
    "MOLECULE": "C[C@@H](OC[C@H](O)CNC(C)(C)CC1Cc2ccccc2C1)c1cc(F)cc(F)c1CCC(=O)O",
    "IC50": "≤ 2310 nM"
  },
  {
    "MOLECULE": "CCC[C@@H](OC[C@H](O)CNC(C)(C)CC1Cc2ccccc2C1)c1cc(Cl)ccc1CCC(=O)O",
    "IC50": "≤ 2190 nM"
  },
  {
    "MOLECULE": "CCOc1ccc(CCCCC(=O)O)c([C@@H](C)OC[C@H](O)CNC(C)(C)CC2Cc3ccccc3C2)c1",
    "IC50": "≤ 2150 nM"
  },
  {
    "MOLECULE": "C[C@@H](OC[C@H](O)CNC(C)(C)CC1Cc2ccccc2C1)c1cccc(F)c1CCC(=O)O",
    "IC50": "≤ 2400 nM"
  },
  {
    "MOLECULE": "C[C@@H](OC[C@H](O)CNC(C)(C)CC1Cc2ccccc2C1)c1ccccc1CCCOCC(=O)O",
    "IC50": "≤ 2270 nM"
  },
  {
    "MOLECULE": "CC[C@@H](OC[C@H](O)CNC(C)(C)CC1Cc2ccccc2C1)c1cc(F)cc(F)c1CCC(=O)O",
    "IC50": "≤ 2250 nM"
  },
  {
    "MOLECULE": "C[C@@H](OC[C@H](O)CNC(C)(C)CC1Cc2ccccc2C1)c1ccc(C(F)(F)F)cc1CCC(=O)O",
    "IC50": "≤ 2170 nM"
  },
  {
    "MOLECULE": "C[C@@H](OC[C@H](O)CNC(C)(C)CC1Cc2ccccc2C1)c1cccc(C(F)(F)F)c1CCC(=O)O",
    "IC50": "≤ 2170 nM"
  },
  {
    "MOLECULE": "CC(C)Oc1cccc([C@@H](C)OC[C@H](O)CNC(C)(C)CC2Cc3ccccc3C2)c1CCC(=O)O",
    "IC50": "≤ 2210 nM"
  },
  {
    "MOLECULE": "Cc1ccc([C@@H](C)OC[C@H](O)CNC(C)(C)CC2Cc3ccccc3C2)c(CCCCC(=O)O)c1",
    "IC50": "≤ 2280 nM"
  },
  {
    "MOLECULE": "C[C@@H](OC[C@H](O)CNC(C)(C)CC1Cc2ccccc2C1)c1ccc(Cl)cc1CCC(=O)O",
    "IC50": "≤ 2320 nM"
  },
  {
    "MOLECULE": "CC(C)(CC1Cc2ccccc2C1)NC[C@@H](O)CO[C@@H](c1ccccc1CCC(=O)O)C1CC1",
    "IC50": "≤ 2360 nM"
  },
  {
    "MOLECULE": "CC(C)Oc1cccc([C@@H](C)OC[C@H](O)CNC(C)(C)CC2Cc3ccccc3C2)c1CCCCC(=O)O",
    "IC50": "≤ 2090 nM"
  }
]
